Values compiled from patent US8664391B2.

Each entry below carries its reported inhibition at 30 min, 10 μM.
Molecular target: CYP2C9 (Homo sapiens)
Sequence (P11712 whole entry): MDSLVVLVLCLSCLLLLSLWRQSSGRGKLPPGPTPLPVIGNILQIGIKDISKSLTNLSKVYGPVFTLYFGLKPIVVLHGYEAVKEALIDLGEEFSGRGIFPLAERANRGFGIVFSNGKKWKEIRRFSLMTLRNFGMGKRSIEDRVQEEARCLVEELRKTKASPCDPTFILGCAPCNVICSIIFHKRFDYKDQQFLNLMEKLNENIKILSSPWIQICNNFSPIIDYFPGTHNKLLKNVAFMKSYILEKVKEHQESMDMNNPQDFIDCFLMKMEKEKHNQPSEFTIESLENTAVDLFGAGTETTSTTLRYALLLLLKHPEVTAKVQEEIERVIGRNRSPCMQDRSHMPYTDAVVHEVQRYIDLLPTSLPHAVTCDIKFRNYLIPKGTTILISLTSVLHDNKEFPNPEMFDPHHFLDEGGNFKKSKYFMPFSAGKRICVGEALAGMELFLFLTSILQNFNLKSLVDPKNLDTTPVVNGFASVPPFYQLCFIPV
Assay: CYP450 inhibition, fluorescent substrate assay, CYP2C9
Format: biochemical
Conditions: pH 7.4
Output spec: scalar in %, unitless text.

# example entries with known answers
>>> measurement("CC(C)CN(C[C@@H](O)[C@H](Cc1ccccc1)NC(=O)OCc1cncs1)C(=O)OCc1cncs1")
95
>>> measurement("CC(C)CN(C[C@@H](O)[C@H](Cc1ccccc1)NC(=O)OCc1cncs1)C(=O)c1ccc(C(F)(F)F)cc1")
99
>>> measurement("CC(C)CN(C[C@@H](O)[C@H](Cc1ccccc1)NC(=O)OCc1cccnc1)C(=O)c1ccncc1")
63
>>> measurement("CC(C)CN(C[C@@H](O)[C@H](Cc1ccccc1)NC(=O)OCc1cncs1)C(=O)c1ccc(F)cc1")
96

## Task What value of inhibition at 30 min, 10 μM has been recorded for this entry: `CC(C)CN(C[C@@H](O)[C@H](Cc1ccccc1)NC(=O)OCc1cncs1)C(=O)CCc1cncs1`
## Result 92

## Task Now this one: `O=C(N[C@@H](Cc1ccccc1)[C@H](O)CN(CC1CCCCC1)C(=O)c1ccncc1)OCc1cncs1`
## Result 84

## Task Now this one: `CC(C)CN(C[C@@H](O)[C@H](Cc1ccccc1)NC(=O)OCc1cncs1)C(=O)c1cnc2ccccc2n1`
## Result 92
